- assayRemarks: C6 glioma SC xenograft in mice
- Assay type: in vivo
- measurementConditions: rat, in vivo, ip; 40 mg/kg (J10 at d18, G24 at d15)
measuredParameter: mortality (%)
Give bare numbers, in %.

[
  {
    "compound": "CC1c2nc3ccccc3c(=O)n2C(c2ccc(O)cc2)N1Cc1ccccc1 (stereo not drawn)",
    "scaleUnit": "%",
    "value": 0
  }
]

Kindly give each listed record's mortality.
1. Cc1cc2nc(-c3ccccc3)c(-c3ccc(O)c(O)c3)nc2cc1C
2. N#CC(=Cc1cc(O)c(O)c(Br)c1)S(=O)(=O)C(C#N)=Cc1cc(O)c(O)c(Br)c1

output:
12.5
100
